- target of assay: human GCG receptor (Homo sapiens, UniProt P47871)
- Construct: expressed in transfected cells; host or cells: Chinese hamster ovary (CHO)
- Sequence (P47871 26-477): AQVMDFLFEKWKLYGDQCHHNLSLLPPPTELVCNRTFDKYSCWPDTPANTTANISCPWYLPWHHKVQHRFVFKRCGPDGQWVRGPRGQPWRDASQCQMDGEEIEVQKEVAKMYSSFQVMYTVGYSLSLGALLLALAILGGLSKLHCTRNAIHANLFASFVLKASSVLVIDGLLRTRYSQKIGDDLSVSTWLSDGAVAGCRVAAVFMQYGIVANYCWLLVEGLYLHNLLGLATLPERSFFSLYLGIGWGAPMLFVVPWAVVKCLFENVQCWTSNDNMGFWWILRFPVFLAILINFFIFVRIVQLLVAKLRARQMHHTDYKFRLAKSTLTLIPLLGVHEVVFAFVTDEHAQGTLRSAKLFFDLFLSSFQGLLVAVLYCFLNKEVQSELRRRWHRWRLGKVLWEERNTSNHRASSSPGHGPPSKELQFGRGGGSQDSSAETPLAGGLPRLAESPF
- assay method text: In vitro cAMP activity (LANCE cAMP kit) in CHO cells expressing human GCG receptor, relative to human GCG
- Type: cell-based
- run parameters: long-acting conjugates, relative potency from cAMP EC50 compared to human GCG
Positions of bridges follow the written chain, without caps; N, C: chain ends. Non-standard residues stand in square brackets, D forms with d. No end group written: not given here. Aib = CC(C)(N)C(=O)O
measured attribute: In vitro activity compared to native peptide (%) vs. Glucagon

>  <substance>
21 (Y[Aib]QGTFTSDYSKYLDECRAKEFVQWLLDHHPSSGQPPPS; bridge 16-20) [compound 21]

>  <scale unit>
%

>  <value>
1.6

$$$$
>  <substance>
77 (Y[Aib]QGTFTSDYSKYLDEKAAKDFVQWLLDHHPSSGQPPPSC; bridge 16-20) [compound 77]

>  <scale unit>
%

>  <value>
1.7

$$$$
>  <substance>
96 (Y[Aib]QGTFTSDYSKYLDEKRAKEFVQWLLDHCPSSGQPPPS; bridge 16-20) [compound 96]

>  <scale unit>
%

>  <value>
4.0

$$$$
>  <substance>
50 (H[Aib]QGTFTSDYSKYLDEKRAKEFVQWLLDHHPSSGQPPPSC; bridge 16-20) [compound 50]

>  <scale unit>
%

>  <value>
6.9

$$$$
>  <substance>
22 (Y[Aib]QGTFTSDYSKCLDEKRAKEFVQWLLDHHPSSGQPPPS; bridge 16-20) [compound 22]

>  <scale unit>
%

>  <value>
0.9

$$$$
>  <substance>
42 (Y[Aib]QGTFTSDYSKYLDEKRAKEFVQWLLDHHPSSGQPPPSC; bridge 16-20) [compound 42]

>  <scale unit>
%

>  <value>
23.1

$$$$
>  <substance>
43 (Y[Aib]QGTFTSDYSKYLDEKRAKEFVQWLLDHHCSSGQPPPS; bridge 16-20) [compound 43]

>  <scale unit>
%

>  <value>
13.5

$$$$

====

Measured In vitro activity compared to native peptide (%) vs. GLP-1 values are reported for all entries that follow.
- target of assay: human GLP-1 receptor (Homo sapiens)
- Construct: expressed in transfected cells; host or cells: Chinese hamster ovary (CHO)
- Sequence (P43220 24-463): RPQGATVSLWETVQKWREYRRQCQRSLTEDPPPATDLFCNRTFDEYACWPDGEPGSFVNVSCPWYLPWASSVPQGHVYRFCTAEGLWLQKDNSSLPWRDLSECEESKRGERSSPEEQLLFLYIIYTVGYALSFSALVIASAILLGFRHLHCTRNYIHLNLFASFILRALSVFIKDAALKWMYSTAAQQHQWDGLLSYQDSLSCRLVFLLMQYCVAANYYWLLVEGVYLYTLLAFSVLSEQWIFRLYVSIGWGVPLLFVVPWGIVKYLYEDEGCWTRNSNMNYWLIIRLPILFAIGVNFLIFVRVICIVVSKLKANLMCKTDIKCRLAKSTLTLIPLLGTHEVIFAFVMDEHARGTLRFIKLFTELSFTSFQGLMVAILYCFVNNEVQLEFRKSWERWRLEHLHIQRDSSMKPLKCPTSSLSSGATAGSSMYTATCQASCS
- assay method text: In vitro cAMP activity (LANCE cAMP kit) in CHO cells expressing human GLP-1 receptor, relative to human GLP-1
- Type: cell-based
- run parameters: long-acting conjugates; relative potency from cAMP EC50 compared to human GLP-1, CHO cells
- Method: The activities of the triple agonists and long-acting conjugates thereof prepared in Examples 1 and 2 were measured by a method of measuring in vitro cellular activities using cell lines, where a GLP-1 receptor, a glucagon (GCG) receptor, and a GIP receptor are transformed, respectively. […]
Positions of bridges follow the written chain, without caps; N, C: chain ends. Non-standard residues stand in square brackets, D forms with d. No end group written: not given here. Aib = CC(C)(N)C(=O)O
measured attribute: In vitro activity compared to native peptide (%) vs. GLP-1

>  <substance>
43 (Y[Aib]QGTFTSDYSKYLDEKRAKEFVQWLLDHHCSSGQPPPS; bridge 16-20) [compound 43]

>  <value>
2.1

$$$$
>  <substance>
77 (Y[Aib]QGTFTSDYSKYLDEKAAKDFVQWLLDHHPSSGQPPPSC; bridge 16-20) [compound 77]

>  <value>
6.7

$$$$
>  <substance>
22 (Y[Aib]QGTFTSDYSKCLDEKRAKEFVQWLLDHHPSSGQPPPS; bridge 16-20) [compound 22]

>  <value>
0.1

$$$$

====

- target of assay: human GIP receptor (Homo sapiens)
- Construct: expressed in transfected cells; host or cells: Chinese hamster ovary (CHO)
- Sequence (P48546 22-466): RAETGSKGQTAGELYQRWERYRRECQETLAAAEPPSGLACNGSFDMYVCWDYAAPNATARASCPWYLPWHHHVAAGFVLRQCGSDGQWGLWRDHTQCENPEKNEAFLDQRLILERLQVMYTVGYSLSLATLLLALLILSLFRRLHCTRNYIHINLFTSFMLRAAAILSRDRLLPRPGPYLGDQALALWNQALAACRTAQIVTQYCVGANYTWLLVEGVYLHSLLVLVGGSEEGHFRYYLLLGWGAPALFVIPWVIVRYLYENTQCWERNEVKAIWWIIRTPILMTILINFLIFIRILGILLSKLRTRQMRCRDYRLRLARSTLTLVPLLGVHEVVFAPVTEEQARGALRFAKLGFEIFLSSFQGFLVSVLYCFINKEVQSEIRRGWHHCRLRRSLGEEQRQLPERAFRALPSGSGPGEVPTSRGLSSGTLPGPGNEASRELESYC
- assay method text: In vitro cAMP activity (LANCE cAMP kit) in CHO cells expressing human GIP receptor, relative to human GIP
- Format: cell-based
- run parameters: long-acting conjugates, relative potency from cAMP EC50 compared to human GIP
Positions of bridges follow the written chain, without caps; N, C: chain ends. Non-standard residues stand in square brackets, D forms with d. No end group written: not given here. Aib = CC(C)(N)C(=O)O
Label MET when In vitro activity compared to native peptide (%) vs. GIP >= 0.7%; otherwise NOT MET.

>  <substance>
43 (Y[Aib]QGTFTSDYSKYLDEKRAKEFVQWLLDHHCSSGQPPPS; bridge 16-20) [compound 43]

>  <assigned label>
NOT MET

$$$$
>  <substance>
21 (Y[Aib]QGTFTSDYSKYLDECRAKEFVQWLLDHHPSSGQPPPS; bridge 16-20) [compound 21]

>  <assigned label>
NOT MET

$$$$
>  <substance>
42 (Y[Aib]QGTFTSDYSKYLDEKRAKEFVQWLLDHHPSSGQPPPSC; bridge 16-20) [compound 42]

>  <assigned label>
MET

$$$$
>  <substance>
77 (Y[Aib]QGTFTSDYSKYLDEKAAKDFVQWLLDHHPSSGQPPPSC; bridge 16-20) [compound 77]

>  <assigned label>
MET

$$$$
>  <substance>
22 (Y[Aib]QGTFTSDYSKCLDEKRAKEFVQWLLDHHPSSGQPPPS; bridge 16-20) [compound 22]

>  <assigned label>
NOT MET

$$$$
>  <substance>
96 (Y[Aib]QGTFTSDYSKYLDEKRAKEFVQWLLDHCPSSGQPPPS; bridge 16-20) [compound 96]

>  <assigned label>
NOT MET

$$$$
